- ASSAY INFO: TLR3 IRF3 reporter activation blockers – cell-based, poly I:C stimulus, luciferase, 10K MLSCN set, primary screen (AID 602277)
- ASSAY SETUP: HEK293-TLR3 RL24 IRF3 luciferase reporter, at 10 µM, hits give high values
PARAMETER MEASURED: inhibition (%)
Record the value in %, omitting the unit from your answer.

-- ask # lookup: inhibition of COCCN(C(=O)CNC(=O)c1ccco1)C(C(=O)NC1CCCCC1)c1cccc(OC)c1 (stereo not given)
-- reply 36.9

-- ask What do you get for COc1ccc(CN2C(=O)c3ccccc3C2C(=O)NC2CCCC2)c(OC)c1 (stereo not given) ?
-- reply 9.49

-- ask Queued: COc1ccc(NCc2nnc(SCC(=O)Nc3cc(C)cc(C)c3)o2)cc1
-- reply 22.6

-- ask Same again, this time with COc1cc(-c2nc(S(=O)(=O)c3ccc(C)cc3)c(N(C)C)o2)cc(OC)c1OC
-- reply -7.3

-- ask Continue with CC(C)c1ccc(CNc2ccc(N3CCOCC3)cc2)cc1
-- reply -43.5

-- ask Then CCOC(=O)N1CCN(C(=O)CN(Cc2ccccc2)S(=O)(=O)c2ccc(OC)c(C)c2)CC1 ?
-- reply 1.48

-- ask // same read-out, input: O=C(NC1CCCC1)C(NS(=O)(=O)c1cccc2nsnc12)c1ccccc1 (stereo not given)
-- reply 17.3

-- ask Input CCc1nnc(NC(=O)CSc2nnc3ncccn23)s1
-- reply 25.6

-- ask Now consider N#Cc1nc(COc2ccccc2Cl)oc1N1CCCCCC1 .
-- reply 0.00693

-- ask Consider next the molecule O=C(Nc1ccc2oc(-c3ccncc3)nc2c1)c1cccs1 in the same way.
-- reply -120

-- ask Try this molecule next: O=C(Nc1ccncc1)c1cc2ccccc2o1
-- reply -115

-- ask Repeat for the following molecule: Cc1cc2ccccc2n1CCNC(=O)c1ccc(S(=O)(=O)N2CCOCC2)cc1
-- reply 30

-- ask Please do the same for CC(C)CNS(=O)(=O)c1ccc(CCC(=O)NCc2ccco2)cc1 as well.
-- reply 14.7

-- ask Now give it for COc1ccc(S(=O)(=O)N2CCN(S(=O)(=O)c3ccc4c(c3)OCCO4)CC2)cc1C too.
-- reply 26.6

-- ask Repeat for the following molecule: CCOc1ccc(-c2nc(S(=O)(=O)c3ccccc3)c(NCc3cccnc3)o2)cc1
-- reply -7.62

-- ask Same again, this time with COc1ccc(S(=O)(=O)N(CCN2CCOCC2)Cc2cc(OC)ccc2OC)cc1
-- reply 33.5

-- ask Can you check Nc1nonc1C(=O)NCCNCc1cc(Br)ccc1OCc1ccccc1F next?
-- reply -30.4

-- ask And CC1CCCCN1CCNC(=O)c1ccc2c(=O)n(CCc3ccccc3)c(=O)[nH]c2c1 (stereo not given) ?
-- reply -7.7

-- ask Also check COc1ccc(CCN2C(=O)CC(N3CCOCC3)C2=O)cc1 (stereo not given)
-- reply -0.756

-- ask Would you mind doing O=C(CSc1nc2ccccc2o1)NC(=O)NCc1ccco1 as well?
-- reply 12.3

---

- STUDY TARGET: Alpha-2C adrenergic receptor (Homo sapiens) (UniProt P18825)
- Sequence (P18825 whole entry, looked up): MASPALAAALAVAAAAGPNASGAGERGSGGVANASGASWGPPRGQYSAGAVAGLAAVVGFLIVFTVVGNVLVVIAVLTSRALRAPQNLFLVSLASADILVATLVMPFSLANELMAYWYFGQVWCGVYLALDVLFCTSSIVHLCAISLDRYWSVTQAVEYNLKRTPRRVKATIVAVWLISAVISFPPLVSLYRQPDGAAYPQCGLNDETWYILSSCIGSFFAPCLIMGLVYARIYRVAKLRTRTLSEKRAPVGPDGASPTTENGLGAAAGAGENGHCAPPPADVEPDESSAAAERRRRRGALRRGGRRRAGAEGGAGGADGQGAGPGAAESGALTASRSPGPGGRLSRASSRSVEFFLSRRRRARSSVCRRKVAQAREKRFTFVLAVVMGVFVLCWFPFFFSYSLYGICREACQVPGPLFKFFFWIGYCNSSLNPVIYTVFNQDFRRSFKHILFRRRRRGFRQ
- ASSAY INFO: compounds altering alpha2C-coupled GIRK flux – cell-based, HEK293 alpha2C/GIRK1/2, thallium flux, primary screen (AID 624);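 further: slope of fluorescence ratio to pre-addition baseline per second over 15 to 24 s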
- ASSAY SETUP: thallium flux BTC fluorescence, at 10 µM, actives lie on both sides
The source made the active and inactive calls.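 Rule for the calls: active = fluorescence slope after compound addition differing from the mean of all screened samples at 99.7% confidence, in either direction; inactive = the rest.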
Thanks in advance; please answer with one of these: T for active, F for inactive

-- ask # outcome recorded in this test, key = Cc1c(C#N)c(N)c(C(=O)c2ccccc2)n1Cc1ccccc1
-- reply F

-- ask // same read-out, input: CCCC(=O)Nc1ccc(NC(=O)c2ccccc2OC)cn1
-- reply F

-- ask Check CCOc1ccc2cc(C#N)c(SCC(=O)N3CCC(C)CC3)nc2c1 too.
-- reply F

-- ask Another compound to look at: O=C(Nc1nnc(SCC(=O)N2CCCCC2)s1)C1CCCCC1
-- reply F

-- ask Next compound up: COC(=O)Cc1cc(=O)n(-c2ccccc2)[nH]1
-- reply F

-- ask Now the compound CCCCn1c(SCc2ccc(Cl)cc2)nc2c1c(=O)[nH]c(=O)n2C
-- reply F

-- ask Input COc1ccc(CNC(=O)c2ccc(CN3CCOCC3)cc2)cc1
-- reply F

-- ask Note, next up: COC(=O)c1cc2ccsc2n1CC(=O)N(C)c1ccccc1
-- reply F

-- ask Another compound to look at: CN(CC(=O)Nc1ccc(F)c(Cl)c1)S(=O)(=O)c1cccc2nsnc12
-- reply F

-- ask Another compound to look at: O=C(CCn1[nH]c(=O)c2ccccc2c1=O)NCCO
-- reply F

-- ask Same lookup for Clc1ccccc1OCCCCn1ccnc1 , please.
-- reply T

-- ask And the next one, CCN(CC)S(=O)(=O)c1ccc2c(c1)nc(SCn1nnc3ccccc3c1=O)n2CC ?
-- reply F

-- ask Next compound: COCCCNC(=O)CCCn1c(=O)c2ccccc2n(CC(=O)Nc2c(C)cccc2C)c1=O
-- reply F

-- ask Please do the same for CCOC(=O)Nc1ccc2c(c1)N(C(=O)CCN1CCOCC1)c1ccccc1S2 as well.
-- reply F

-- ask Further, for COc1ccccc1-c1cc2nc(C)c(CCC(=O)NCc3ccco3)c(C)n2n1 ?
-- reply F

-- ask And then Cc1ccc2c(c1)-c1c(cnn1CC(=O)Nc1ccccc1N1CCN(C)CC1)CO2 , what is it?
-- reply F

-- ask Same again, this time with CCn1c(SCC(=O)Nc2cc(C)on2)nc2sc3c(c2c1=O)CCCC3
-- reply F

-- ask Moving on to the next compound: O=C(CN(Cc1ccc(F)cc1)C(=O)Cn1nnc2ccccc21)NCC1CCCO1 (stereo unspecified)
-- reply F

-- ask Next up: CCc1nccn1S(=O)(=O)c1ccc(C)c(C)c1
-- reply F

-- ask Thanks! And O=C(NCCCN1CCN(c2cccc(Cl)c2)CC1)c1ccc(N2CCCC2=O)cc1 ?
-- reply F

-- ask Follow-up item: COc1ccc(-c2nnc(SC(C)C(=O)Nc3nccs3)n2-c2ccccc2)cc1OC (stereo unspecified)
-- reply F

-- ask What do you have for CCOc1ccc2nc(N3CCC(C(=O)N4CCN(C5CCCCC5)CC4)CC3)sc2c1 ?
-- reply F

-- ask Now consider N#CCCN(Cc1cccnc1)C(=O)Nc1ccc(Cl)c(Cl)c1 and answer again.
-- reply F

-- ask Would you mind doing c1cc(C(c2nnnn2C2CCCC2)N2CCOCC2)ccn1 (stereo unspecified) as well?
-- reply F

-- ask Next compound: CN(CC(=O)Nc1cccnc1)S(=O)(=O)c1cc(Cl)ccc1Cl
-- reply F

-- ask # repeat for CN(C)C(=O)COc1ccc2cc(-c3ccccc3)c(=O)oc2c1
-- reply F

-- ask And the next one, Cc1cc(C)nc(NS(=O)(=O)c2ccc(NC(=O)Cn3c(=O)oc4ccccc43)cc2)n1 ?
-- reply F

-- ask Again, but for CCOC(=O)C1CCN(CC(=O)Nc2c(C(=O)OC)[nH]c3ccc(Cl)cc23)CC1
-- reply F

-- ask Another compound: Cc1ccccc1NC(=O)C1CCCN(S(=O)(=O)c2cccc3cccnc23)C1 (stereo unspecified)
-- reply F

-- ask // repeat for CCOC(=O)c1cccc(NC(=O)CSc2nc3cccnc3n2C)c1 and report
-- reply F

-- ask Param item: O=S(=O)(c1cccc2c(S(=O)(=O)N3CCCC3)cccc12)N1CCCC1
-- reply F

---

Could you please report measured fluorescence slope for the items listed next?
- STUDY TARGET: Muscarinic acetylcholine receptor M4 (Homo sapiens)
- ASSAY INFO: M4-linked GIRK flux change, two-sided – cell-based, HEK293 M4/GIRK, thallium flux, BTC-AM, M4 allosteric agonist project, primary screen (AID 625);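 further: thallium influx through GIRK channels coupled to M4 in HEK293 cells with BTC-AM dye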
- ASSAY SETUP: at 10 µM, actives lie on both sides
Activity calls are given as the source filed them.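 How the source made its calls: active means fluorescence slope after compound addition differing from the mean of all tested samples at 99.7% confidence, mostly higher but some lower; inactive means the rest.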

-- ask Please report the recorded fluorescence slope for COc1ccc(-n2nnc3c(=O)n(C/C=C/c4ccccc4)cnc32)cc1 .
-- reply 0.00695 (inactive)

-- ask Also, Cc1onc(-c2ccccc2)c1C(=O)N1CCCSC1=Nc1ccccc1 please.
-- reply 0.00639 (inactive)

-- ask Another compound to look at: Cc1cc2ncn(C(=O)N3CCOCC3)c2cc1C
-- reply 0.00619 (inactive)

-- ask What do you get for O=C(NCCCN1CCN(CCCNC(=O)c2ccc(F)cc2)CC1)c1ccc(F)cc1 ?
-- reply 0.00616 (inactive)

-- ask Next record, please: CN1C(=O)CC(C(=O)Nc2ccc(F)cc2)SC1=Nc1ccc2c(c1)OCO2 (stereo not given)
-- reply 0.0044 (inactive)

-- ask Likewise for Cc1noc(C)c1CSc1nnc(-c2ccncc2)n1-c1cccc(Cl)c1C ?
-- reply 0.00492 (inactive)

-- ask Now the same for COc1cc2c(cc1OC)CN(Cc1nc3ccsc3c(=O)[nH]1)CC2
-- reply 0.0061 (inactive)

-- ask Then this compound: c1cncc(-c2nnc(SCCSc3nnc(-c4cccnc4)o3)o2)c1
-- reply 0.00585 (inactive)

-- ask Cool, now CCOC(=O)c1c(NC(=O)CSc2nnc(-c3cccnc3)o2)sc(C)c1C
-- reply 0.00591 (inactive)

-- ask Record: COc1ccc(-c2cc3nc4n(c(=O)c3s2)CCC4)cc1
-- reply 0.0055 (inactive)

-- ask Query Cc1nc(SCC(=O)NCc2ccco2)c2c(C)c(C)sc2n1 next
-- reply 0.00596 (inactive)

-- ask Item: CCN(c1ccc(OC)cc1)S(=O)(=O)c1ccc2c(c1)CCN2C(=O)CCC(=O)O
-- reply 0.00631 (inactive)

-- ask Next compound up: CCOC(=O)C1CCCN(C(=O)c2cc3c(C)nc4ccccc4c3o2)C1 (stereo not given)
-- reply 0.00625 (inactive)

-- ask Would you mind doing COCCN1C(=O)c2oc3c(C)cc(C)cc3c(=O)c2C1c1cccc(O)c1 (stereo not given) as well?
-- reply 0.00558 (inactive)

-- ask Quick one: Cc1cc(NC(=O)COc2cccc3cccnc23)no1
-- reply 0.00637 (inactive)

-- ask Try this compound next: CCCc1cn(S(=O)(=O)c2ccc(OC)cc2OC)nc1N
-- reply 0.00411 (inactive)

-- ask Can you check NC(=O)c1sc2nc(N3CCCCC3)c3c(c2c1N)CCCC3 next?
-- reply 0.00601 (inactive)

-- ask Also need Cc1ccccc1-c1nc(CN2CCC(C(=O)NCc3cccnc3)CC2)c(C)o1 , thanks.
-- reply 0.00551 (inactive)

-- ask O=C(Nc1ccc2oc(-c3ccncc3)nc2c1)c1cccs1 , same question.
-- reply 0.00345 (inactive)

-- ask Field entry: O=S(=O)(NCCc1ccncc1)c1cc(Br)ccc1F
-- reply 0.00792 (inactive)

-- ask Again, but for COCCn1c(=O)[nH]c2cc(C(=O)N3CCN(c4ccccc4OC)CC3)ccc2c1=O
-- reply 0.00559 (inactive)

-- ask Quick one: CCCC1C(C#N)=C(N)Oc2n[nH]c(C(C)(C)C)c21 (stereo not given)
-- reply 0.00609 (inactive)

-- ask Now consider O=C1CN(C(=O)CN2CCCC2)C(c2ccccc2)c2cc(Br)ccc2N1 (stereo not given) .
-- reply 0.00427 (inactive)

-- ask Also need CC(C)CNC(=O)C1C2C=CC(C2)C1C(=O)O (stereo not given) , thanks.
-- reply 0.00535 (inactive)

-- ask One more compound: Cc1ccc(Cn2ccc(NC(=O)c3noc4c3CCCC4)n2)cc1
-- reply 0.00747 (inactive)

-- ask Try the compound CCOC(=O)CSc1nnc(-c2ccc(S(=O)(=O)N3CCOCC3)cc2)n1-c1ccccc1
-- reply 0.00502 (inactive)

-- ask Same read-out for Cc1csc(OCc2ccc(C#N)cc2)n1 ?
-- reply 0.0082 (inactive)

-- ask Now this one: CCOC(=O)c1[nH]c2ccc(C)cc2c1N=C(C)N(C)C
-- reply 0.00488 (inactive)

-- ask Consider next the compound O=S1(=O)C=CC(Nc2cccc(Cl)c2)C1 (stereo not given) in the same way.
-- reply 0.0065 (inactive)

-- ask Please give the result for Cc1ccc(NC(=O)Cn2cccc2)cc1Cl too.
-- reply 0.00925 (inactive)

-- ask Next compound up: COc1cc(OC)cc(-n2nnnc2SCC(=O)N2CCCC2)c1
-- reply 0.0053 (inactive)

-- ask How about CCCCOc1cccc(NC(=O)CSc2nccn2C)c1 ?
-- reply 0.00562 (inactive)

-- ask // repeat for O=C(CS(=O)(=O)c1cn(Cc2ccc(F)cc2)c2ccccc12)N1CCCCC1 and report
-- reply 0.00645 (inactive)

-- ask Next entry: COc1ccc(C)cc1S(=O)(=O)N1CCN(Cc2ccccc2)CC1
-- reply 0.00529 (inactive)

-- ask Same thing, different compound: CCOC(=O)N1CCN(C(=O)c2ccc3c(=O)n(CCc4ccccc4)c(=O)[nH]c3c2)CC1
-- reply 0.00774 (inactive)

-- ask Repeat for the following compound: COc1ccc2c(c1)CCc1c(C(=O)N3CC4(C)CC3CC(C)(C)C4)noc1-2 (stereo not given)
-- reply 0.00924 (inactive)

-- ask And then O=C(Nc1ccccc1C(=O)N1CCOCC1)c1ccncc1 , what is it?
-- reply 0.00647 (inactive)

-- ask And CCOC(=O)c1ccc(NC2OC(=O)c3ccccc32)cc1 (stereo not given) ?
-- reply 0.00703 (inactive)

-- ask Follow-up entry: O=C1c2ccccc2C(=O)N1Cc1nc2ccccc2c(=O)n1CCN1CCOCC1
-- reply 0.0047 (inactive)

-- ask One more compound: O=C(O)COc1ccc(Oc2ccccc2)cc1
-- reply 0.00744 (inactive)

-- ask Same thing, different compound: Cc1cc(NCCN(C)C)n2nc(-c3cccs3)cc2n1
-- reply 0.00655 (inactive)

-- ask # iterate: O=C(CCSc1nnc(-c2ccncc2)o1)Nc1ccccc1
-- reply 0.0061 (inactive)

-- ask Record: Cc1cccn2c(=O)c3cc(C#N)c(=NC(=O)c4ccncc4)n(Cc4ccco4)c3nc12
-- reply 0.00818 (inactive)

-- ask Now this one: C/C(NC1CCCC1)=C(/C#N)C(N)=O
-- reply 0.00436 (inactive)

-- ask Let us now turn to O=c1nc(N2CCCC2)nc(Nc2ccccc2)[nH]1
-- reply 0.00545 (inactive)
